tested on: OVCAR-8 ovarian; test: NCI tumour cell line growth inhibition, 48 h
Listed here: items and their measured TGI.

Example entries and their recorded answers appear below.
# COMPOUND, ASSAYED TARGET, MEASUREMENT
data = [
    ("CCOC(=O)C(Cl)(NC(=O)c1ccc(F)cc1)C(F)(F)F (stereo unspecified)", "OVCAR-8 ovarian", "> 100 µM"),
    ("CCC1(O)C(=O)OCc2c1cc1n(c2=O)Cc2cc3c(N)cccc3nc2-1 (stereo unspecified)", "OVCAR-8 ovarian", "7.21 µM"),
    ("CC(=O)O[C@@H]1C=C(C)[C@H](CBr)O[C@@]2(C)CC[C@H](Br)C(C)(C)[C@H]12", "OVCAR-8 ovarian", "> 100 µM"),
    ("CCC1c2[nH]c3ccccc3c2C[C@H]2C(=O)NC(CCC(=O)OC(C)(C)C)C(=O)N12 (stereo partly specified)", "OVCAR-8 ovarian", "> 100 µM"),
    ("NS(=O)(=O)c1nnc(NC(=O)c2ccccc2)s1", "OVCAR-8 ovarian", "> 100 µM"),
    ("COc1cc2c3c(n(CCCBr)c(=O)c2cc1OC)-c1ccc(NC(C)=O)cc1C3=O", "OVCAR-8 ovarian", "> 100 µM"),
    ("CC(C)CC(N)C(=O)O (stereo unspecified)", "OVCAR-8 ovarian", "> 100 µM"),
    ("CO/N=C(\\C(=O)Nc1cncs1)c1csc(NC(c2ccccc2)(c2ccccc2)c2ccccc2)n1", "OVCAR-8 ovarian", "> 10 µM"),
    ("Cc1ccc(S(=O)(=O)OC2C3OC(C)(C)OC3OC2C(c2cc(O)c3c(c2O)C(=O)c2ccccc2C3=O)c2cc(O)c3c(c2O)C(=O)c2ccccc2C3=O)cc1 (stereo unspecified)", "OVCAR-8 ovarian", "> 10 µM"),
    ("CN(C)C(=S)SN(C)C(=O)Nc1ccccc1", "OVCAR-8 ovarian", "> 93.7 µM"),
]

-- ask // TGI lookup, key: NCCc1nc(-c2nc(C(=O)O)cs2)cs1
-- reply > 100 µM

---

test system: MOLT-4 leukemia; experiment: NCI tumour cell line growth inhibition, 48 h
Listed here: items and their measured TGI.

Example entries and their recorded answers appear below.
# COMPOUND, TGI
records = [
    ("CCCCCCCCCCCCCCCCCc1cccc(OCOCCOC)c1CO", "> 100 µM"),
    ("CSc1ccc(/C=C2/C[N+](C)(C)C/C(=C/c3ccc(SC)cc3)C2=O)cc1", "67.4 µM"),
    ("N#Cc1cnsc1", "> 100 µM"),
    ("COc1ccc(S(=O)(=O)N(Cc2ccc3c(n2)C=CC(C)(C)O3)C2CCC2)cc1OC", "0.0355 µM"),
    ("N#CCCN(CCC#N)c1ccc(/C=C2\\N=C(CN3C(=O)c4ccccc4C3=O)OC2=O)cc1", "> 100 µM"),
    ("CCOC(=O)/C(O)=C(/C=NC(=S)c1ccncc1)C(=O)OCC", "> 100 µM"),
    ("COc1ccc(C(=O)O)c(Cc2cccc3ccccc23)c1", "> 100 µM"),
    ("CN1CCC(OC(=O)Oc2ccccc2)(c2ccccc2)CC1", "36.4 µM"),
    ("CC(C)=CC(=O)N1CCN(C(=O)C=C(C)C)CC1", "> 100 µM"),
    ("CCOC(=O)Cn1sc2ncc([N+](=O)[O-])cc2c1=O", "9.45 µM"),
]

Turning to the following compound.
-- ask Request: TGI, test system MOLT-4 leukemia, entry COc1ccc(-c2c(C(C)=O)c(-c3ccccc3)n(C3OC(COC(C)=O)C(OC(C)=O)C(OC(C)=O)C3OC(C)=O)c(=S)c2C#N)cc1 (stereo not given)
-- reply > 100 µM
